# Lookup of reported absorption maximum keyed by entry
method.summary: solvent given as SMILES
particulars: in CC#N
Answer in nm, number only, no unit symbol.

In the examples that follow, each entry is paired with its recorded absorption maximum.
{"columns": ["chemical.string", "absorption maximum / nm"],
 "data": [
  ["COc1ccc2cc(/C=C/c3ccc([N+](=O)[O-])cc3)c(=O)oc2c1", 392],
  ["COc1cnc(-c2cc[n+](C3=C(F)C(F)(F)C(F)(F)[C-]3F)cc2)s1", 407]
]}

Proceeding to the next compound to report its absorption maximum.
Reported absorption maximum, compound Cc1cc(O)c(C(C)C)cc1/N=C/c1ccc([N+](=O)[O-])cc1 : ____
392
